Assign koff to each entry below.
Target: T1, NOD mouse SIRP-α D1 domain (mouse (NOD strain))
T1 chain: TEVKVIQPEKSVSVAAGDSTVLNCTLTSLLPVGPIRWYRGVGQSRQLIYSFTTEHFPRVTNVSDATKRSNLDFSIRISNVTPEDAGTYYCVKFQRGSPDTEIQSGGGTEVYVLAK
Assay: SPR, Langmuir fit
Write the value in s⁻¹ as a bare number.

Fill in koff for record S17 (scFv, V domains shown, also called clone 17) VH: DVQLVESGGAVVRPGESLRLSCAASGFTFSSYAMSWVRQAPGKGLEWLAGISAGGSDTYYIDSVKGRFTISRDNSENSLYLQMNSLTAEDTAVYYCARETWNHLFDYWGLGTLVTVSS VL: ALTQPASVSANPGETVKITCSGGDWYSTYYGWYQQKSPGSAPVTVIHSDDKRPSDIPSRFSGSASGSAATLTITGVRVEDEAVYYCAGYDGRTYINTFGAGTTLTVL
0.000612

// fetch koff given entry S73 (scFv, V domains shown, also called clone 73) VH: DVQLVESGGGVVRPGESLRLSCEASGFTFSSNAMSWARQAPGKGLEWVAGISSGSDTYYGDSVKGRLTISRDNSKNILYLQMNSLTAEDTAVYYCARETWNHLFDYWGLGTLVTVSS VL: ALTQPASVSANPGETVKITCSGGIYSSYYYAWYQQKSPGSAPVTLIYSDDKRPSNIPSRFSGSASGSTATLTITGVRAEDEAVYFCGGYDQSSYTNPFGAGTTLTVL
0.00148

For the binder S76 (scFv, V domains shown, also called clone 76) VH: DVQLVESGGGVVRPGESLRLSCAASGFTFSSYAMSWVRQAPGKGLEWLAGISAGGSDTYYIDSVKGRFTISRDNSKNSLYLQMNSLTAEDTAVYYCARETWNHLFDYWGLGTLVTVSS VL: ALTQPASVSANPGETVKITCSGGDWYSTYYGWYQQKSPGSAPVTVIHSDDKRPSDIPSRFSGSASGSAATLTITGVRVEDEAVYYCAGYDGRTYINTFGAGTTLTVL , report koff.
0.000576

Look up and report measured koff for this entry: S24 (scFv, V domains shown, also called clone 24) VH: DVQLVESGGGVVRPGESLRLSCAASGFTFSSNAMSWVRQAPGKGLEWLAGISAGGSDTYYPASVKGRFTISRDNPKNTLYLQMNTLTAEDTAVYYCARETWNHLFDYWGLGTLVTVSS VL: ALTQPASVSANPGETVKIACSGGSYYSYYYGWYQQKSPGSALVTVIYSDDKRPSGIPSRFSGSASGSTATLTITGVRAEDEAVYYCGGYDYSSYTNDFGAGTTLTVL
0.00386

Identify measured koff associated with S69 (scFv, V domains shown, also called clone 69) VH: DLQLVESGGGVVRPGESLRLSCAASGFTFSSYAMSWVRQAPGKGLEWLAGISAGGSDTYYIDSVKGRFTISRDNSKNSLYLQMNSLTAEDTAVYYCARETWNHLFDYWGLGTLVTVSS VL: ALTQPASVSANPGETVKIICSGGDYYSTYYGWYQQKSPGSAPVTVIHSDDKRPSDIPSRFSGSASGSAATLTITGVRVEDEAVYFCGAYDGRTYINTFGAGTTLTVL
0.000709

Complete the entry with koff for S26 (scFv, V domains shown, also called clone 26) VH: DVQLVESGGGVVRPGESLRLSCAASGFTFSTYAMSWVRQAPGKGLEWVSGISASGSGTYYGDSVKGRFTMSRDNSKNTLYLQMNSLTAEDTAVYYCARETWNHLFDYWGLGTLVTVSS VL: ALTQPASVSANLGGTVEITCSGGSSSYYGWYQQKSPGSAPVTVIYSDNQRPSDIPSRFSGSASDSTATLTITGVQVEDEAIYYCGGYDSSTYANTFGAGTTLTVL
0.000764

Provide only the value of recorded koff for S66 (scFv, V domains shown, also called clone 66; scFv-Fc form of AB66) VH: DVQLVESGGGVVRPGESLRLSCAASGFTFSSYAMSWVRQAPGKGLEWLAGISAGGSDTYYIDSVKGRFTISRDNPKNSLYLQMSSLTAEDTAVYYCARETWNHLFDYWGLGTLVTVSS VL: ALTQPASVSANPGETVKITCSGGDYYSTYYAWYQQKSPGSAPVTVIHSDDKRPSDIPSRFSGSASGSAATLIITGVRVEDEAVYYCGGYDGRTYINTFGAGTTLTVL
0.00049

Tell me koff reported for S16 (scFv, V domains shown, also called clone 16) VH: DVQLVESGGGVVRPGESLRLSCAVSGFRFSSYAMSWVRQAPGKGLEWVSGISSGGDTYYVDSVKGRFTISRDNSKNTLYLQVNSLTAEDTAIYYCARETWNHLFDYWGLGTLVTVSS VL: ALTQPASVSANLGETVKITCSGGDSSSHYYGWYQQKSPGSAPVTVIYSDDERPSDIPSRFSGSASGSTATLTITGVRVEDEAIYYCGAYDGSTYANTFGAGTTLTVL
0.00128

Output measured koff for this item: S71 (scFv, V domains shown, also called clone 71) VH: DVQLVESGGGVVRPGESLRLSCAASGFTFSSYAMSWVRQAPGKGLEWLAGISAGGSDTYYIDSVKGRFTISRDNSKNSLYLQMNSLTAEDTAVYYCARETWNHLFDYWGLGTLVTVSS VL: ALTQPASVSANPGETVKITCSGGGYYSTYYGWYQQKSPGSAPVTVIHSDDKRPSDIPSRFSGSASGSAATLTITGVRVEDEAVYYCAGYDARTYINTFGAGTTLTVL
0.00112

Using known records, supply koff for S3 (scFv, V domains shown, also called clone 3; scFv-Fc form of AB3) VH: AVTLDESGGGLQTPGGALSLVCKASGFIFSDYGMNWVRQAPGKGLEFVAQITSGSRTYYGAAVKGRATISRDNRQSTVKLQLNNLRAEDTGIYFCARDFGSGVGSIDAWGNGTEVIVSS VL: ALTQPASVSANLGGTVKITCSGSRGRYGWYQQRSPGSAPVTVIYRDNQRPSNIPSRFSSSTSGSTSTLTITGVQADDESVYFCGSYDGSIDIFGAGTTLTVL
0.00119
